The values you see were collected from the supplement of paper PMC10567573.

B1: MMP1 (parent)
chain: FHGTRQYKFDPKTKRILTLQKANS

# Variants of: B1
# assayMethodText: protein stability index of a GFP-peptide fusion (GPS, HEK-293T) (PSI 1-6); higher = more stable;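 note: lentivirally expressed fusions sorted by FACS into six bins by GFP to DsRed ratio, PSI derived from sequencing read proportions per bin multiplied by bin number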
# assayConditions: c terminus: a fixed tail appended
valueKind: protein stability index
Number only, no unit.

Examples from the recorded data:
- G3Q: 1.67
- R5I: 2.21
- H2T: 2.04

Incoming: Tell me measured protein stability index for Q20S please.
Outgoing: 2.28

Incoming: Tell me measured protein stability index for D10F please.
Outgoing: 2.45

Incoming: Tell me measured protein stability index for H2W please.
Outgoing: 2.29

Incoming: Tell me measured protein stability index for K21R please.
Outgoing: 1.82
